# Tested on: Escherichia coli
# experiment: Inhibition of Escherichia coli KP308 SHV-5 assessed as minimum concentration of compound required to reduce the MIC of aztreonam to 4 ug/ml
measurement.label: MEC

INSERT INTO assay_data (molecule, assay_target, measurement) VALUES
  ('COc1ccc2c(c1C(=O)O)OB(O)C1CCC21 (stereo unspecified)', 'Escherichia coli', '10 µg/mL'),
  ('O=C(O)c1cccc2c1OB(O)[C@@H](Sc1ccccn1)C2', 'Escherichia coli', '> 10 µg/mL'),
  ('COc1ccc2c(c1C(=O)O)OB(O)C1(CC1)C2', 'Escherichia coli', '> 20 µg/mL'),
  ('O=C(O)c1cccc2c1OB(O)[C@@H](Sc1ncccn1)C2', 'Escherichia coli', '> 20 µg/mL'),
  ('COCCOc1ccc2c(c1C(=O)O)OB(O)[C@@H](Sc1nncs1)C2', 'Escherichia coli', '10 µg/mL'),
  ('COc1ccc2c(c1C(=O)O)OB(O)C1C2C1(F)F (stereo unspecified)', 'Escherichia coli', '1.25 µg/mL');

* * *

# Tested on: Klebsiella pneumoniae
# experiment: Inhibition of Klebsiella pneumoniae KP1054 VIM-1 assessed as minimum concentration of compound required to reduce the MIC of biapenem to 1 ug/ml
Class assignment keyed on MEC, ranges low bin (below 0.2 µg/mL), mid bin (0.2 µg/mL to below 5 µg/mL), high bin (5 µg/mL or more)

INSERT INTO measurements (compound, class) VALUES
  ('COc1ccc2c(c1C(=O)O)OB(O)CC2', 'mid bin'),
  ('COc1ccc2c(c1C(=O)O)OB(O)C1C2C1(F)F (stereo not given)', 'high bin'),
  ('O=C(O)c1nccc2c1OB(O)[C@@H]1C[C@H]21', 'mid bin'),
  ('O=C(O)c1cccc2c1OB(O)[C@H]1C[C@@H]21', 'high bin'),
  ('O=C(O)c1cccc2c1OB(O)[C@@H](Sc1ncc[nH]1)C2', 'high bin'),
  ('COc1ccc2c(c1C(=O)O)OB(O)C1(CO)CC21 (stereo not given)', 'low bin'),
  ('COCCOc1ccc2c(c1C(=O)O)OB(O)[C@@H](Sc1nncs1)C2', 'low bin'),
  ('O=C(O)c1c(OC2COC2)ccc2c1OB(O)[C@@H](Sc1nncs1)C2', 'high bin'),
  ('Nn1cnnc1S[C@H]1Cc2cccc(C(=O)O)c2OB1O', 'mid bin'),
  ('O=C(O)c1c(OCCF)ccc2c1OB(O)[C@@H](Sc1nncs1)C2', 'low bin'),
  ('O=C(O)c1nccc2c1OB(O)CC2', 'high bin'),
  ('COc1ccc2c(c1C(=O)O)OB(O)[C@@H]1C[C@H]21', 'low bin'),
  ('O=C(O)c1cccc2c1OB(O)CC2', 'high bin'),
  ('CSCCOc1ccc2c(c1C(=O)O)OB(O)[C@@H](Sc1nncs1)C2', 'mid bin'),
  ('O=C(O)c1cccc2c1OB(O)[C@@H](OC1CNC1)C2', 'mid bin'),
  ('O=C(O)c1c(F)ccc2c1OB(O)[C@@H]1C[C@H]21', 'low bin'),
  ('O=C(O)c1cccc2c1OB(O)[C@@H](Sc1nncs1)C2', 'mid bin'),
  ('O=C(O)c1cccc2c1OB(O)[C@@H]1C[C@H]21', 'low bin'),
  ('CSCC(=O)N[C@H]1Cc2ccc(F)c(C(=O)O)c2OB1O', 'high bin'),
  ('Nc1nnc(S[C@H]2Cc3cccc(C(=O)O)c3OB2O)s1', 'low bin'),
  ('CO[C@H]1Cc2cccc(C(=O)O)c2OB1O', 'low bin');

* * *

# experiment: Inhibition of […] OXA-48 using nitrocefin as substrate preincubated for 10 mins followed by substrate addition measured every 10 secs for 10 mins by spectrophotometrically analysis
pKi: −log10 of the molar value.
measurement.label: pKi

INSERT INTO measurements (molecule, measurement) VALUES
  ('O=C(O)c1c(F)ccc2c1OB(O)[C@@H]1C[C@H]21 [XERUBORBACTAM]', 9.55),
  ('O=C(O)C[C@@H]1CC[C@H](NC(=O)Cc2cccs2)B(O)O1 [VABORBACTAM]', 4.85),
  ('NC(=O)[C@@H]1CC[C@@H]2CN1C(=O)N2OS(=O)(=O)O [AVIBACTAM]', 7.57);

* * *

# Test system: Escherichia coli
# experiment: Inhibition of Escherichia coli KP308 SHV-5 assessed as minimum concentration of compound required to reduce the MIC of aztreonam to 4 ug/ml
measurement.label: MEC (µg/mL)

INSERT INTO results (compound, measurement_label, bound_operator, measurement) VALUES
  ('COc1ccc2c(c1C(=O)O)OB(O)C(CO)C2 (centres undefined)', 'MEC', '>', 20),
  ('O=C(O)c1cccc2c1OB(O)[C@@H]1C[C@H]21', 'MEC', '=', 0.3),
  ('O=C(O)c1nccc2c1OB(O)[C@@H]1C[C@H]21', 'MEC', '=', 0.6),
  ('O=C(O)c1c(F)ccc2c1OB(O)[C@@H]1C[C@H]21', 'MEC', '=', 0.3),
  ('CS[C@H]1Cc2cccc(C(=O)O)c2OB1O', 'MEC', '>', 20),
  ('COc1ccc2c(c1C(=O)O)OB(O)[C@@H](Sc1nncs1)C2', 'MEC', '=', 0.3),
  ('O=C(O)c1cccc2c1OB(O)[C@@H](OC1CNC1)C2', 'MEC', '>', 20),
  ('COc1ccc2c(c1C(=O)O)OB(O)[C@@H](CCO)C2', 'MEC', '=', 20),
  ('COc1ccc2c(c1C(=O)O)OB(O)[C@H]1C[C@@H]21', 'MEC', '=', 0.3),
  ('N#CCOc1ccc2c(c1C(=O)O)OB(O)[C@@H](Sc1nncs1)C2', 'MEC', '=', 10),
  ('O=C(O)c1cccc2c1OB(O)[C@H]1C[C@@H]21', 'MEC', '=', 5),
  ('COc1ccc2c(c1C(=O)O)OB(O)C=C2', 'MEC', '=', 20),
  ('O=C(O)c1cccc2c1OB(O)[C@@H](Sc1nccs1)C2', 'MEC', '=', 10),
  ('Cn1cnnc1S[C@H]1Cc2cccc(C(=O)O)c2OB1O', 'MEC', '>', 20),
  ('O=C(O)c1c(OCC2CC2)ccc2c1OB(O)[C@@H](Sc1nncs1)C2', 'MEC', '=', 10),
  ('COc1ccc2c(c1C(=O)O)OB(O)C1(CO)CC21 (centres undefined)', 'MEC', '=', 5),
  ('O=C(O)c1c(OCCF)ccc2c1OB(O)[C@@H](Sc1nncs1)C2', 'MEC', '=', 5),
  ('Nc1nnc(S[C@H]2Cc3ccc(OCC(F)F)c(C(=O)O)c3OB2O)s1', 'MEC', '>', 20),
  ('O=C(O)c1c(F)ccc2c1OB(O)[C@@H](Sc1nncs1)C2', 'MEC', '=', 0.3),
  ('O=C(O)c1c(OCc2nncs2)ccc2c1OB(O)[C@@H](Sc1nncs1)C2', 'MEC', '=', 5),
  ('COc1ccc2c(c1C(=O)O)OB(O)C(F)=C2', 'MEC', '=', 1.25),
  ('O=C(O)c1c(OC2COC2)ccc2c1OB(O)[C@@H](Sc1nncs1)C2', 'MEC', '>', 20),
  ('O=C(O)c1cccc2c1OB(O)[C@@H](Sc1nncs1)C2', 'MEC', '=', 2.5),
  ('O=C(O)c1c(OC(F)F)ccc2c1OB(O)[C@@H](Sc1nncs1)C2', 'MEC', '=', 2.5);

* * *

# experiment: Clearance in rat at 300 mg/kg, iv administered as infusion for 0.5 hrs by HPLC/MS analysis
# Type: ADME, organism-based
# measurement.conditions: in vivo
measurement.label: clearance

INSERT INTO assay_data (sample_smiles, measurement) VALUES
  ('O=C(O)c1c(F)ccc2c1OB(O)[C@@H]1C[C@H]21', '8.17 mL/min/kg');

* * *

# experiment: AUC in rat at 100 mg/kg, po administered via gavage by HPLC/MS analysis
# Type: ADME, organism-based
# measurement.conditions: in vivo
measurement.label: AUC (ng·h/mL)

INSERT INTO results (compound, measurement_label, measurement) VALUES
  ('O=C(O)c1c(F)ccc2c1OB(O)[C@@H]1C[C@H]21 [XERUBORBACTAM]', 'AUC', 89700);

* * *

# experiment: Half life in rat at 100 mg/kg, iv administered as infusion for 0.5 hrs by HPLC/MS analysis
# Type: ADME, organism-based
# measurement.conditions: in vivo
measurement.label: half-life (h)

INSERT INTO assay_data (sample_smiles, measurement_label, unit_annotation, measurement) VALUES
  ('O=C(O)c1c(F)ccc2c1OB(O)[C@@H]1C[C@H]21', 'half-life', 'h', 1.46);

* * *

# Test system: Escherichia coli
# experiment: Inhibition of Escherichia coli ECM6625 SHV-5 assessed as minimum concentration of compound needed to reduce the MIC of aztreonam to 4 ug/ml
measurement.label: MEC (µg/mL)

INSERT INTO measurements (compound, bound_operator, measurement) VALUES
  ('O=C(O)c1cccc2c1OB(O)[C@H]1C[C@@H]21', '=', 5),
  ('COc1ccc2c(c1C(=O)O)OB(O)[C@@H](Sc1nncs1)C2', '=', 0.3),
  ('COc1ccc2c(c1C(=O)O)OB(O)C(F)=C2', '=', 1.25),
  ('COc1ccc2c(c1C(=O)O)OB(O)C1CC21 (stereo not drawn)', '=', 0.3),
  ('O=C(O)c1nccc2c1OB(O)[C@@H]1C[C@H]21', '=', 0.6),
  ('CSCC(=O)N[C@H]1Cc2ccc(F)c(C(=O)O)c2OB1O', '=', 0.15),
  ('O=C(O)c1c(F)ccc2c1OB(O)[C@H]1C[C@@H]21', '=', 1.25),
  ('COc1ccc2c(c1C(=O)O)OB(O)C1C2C1(F)F (stereo not drawn)', '=', 1.25),
  ('COc1ccc2c(c1C(=O)O)OB(O)C=C2', '=', 20),
  ('COc1ccc2c(c1C(=O)O)OB(O)CC2', '=', 0.6),
  ('COc1ccc2c(c1C(=O)O)OB(O)[C@@H](CCO)C2', '=', 20),
  ('O=C(O)c1c(F)ccc2c1OB(O)[C@@H]1C[C@H]21', '=', 0.3),
  ('COc1ccc2c(c1C(=O)O)OB(O)C(CO)C2 (stereo not drawn)', '>', 20);
